Ref: PubChem BioAssay (NCI)

TGI: recorded values
System: HT29 colon
testName: NCI tumour cell line growth inhibition, 48 h

Examples with their reported TGI follow.
# molecule, TGI
records = [
    ("O=S(=O)(O)c1ccc(O)c2ncc(Cl)cc12", "> 100 µM"),
    ("Cc1ccc(-c2cn3ccnc3c(-c3ccc(Cl)cc3)n2)cc1", "37.4 µM"),
    ("O=C1CC(c2ccc(O)cc2)C2(O1)C(=O)OC(C(O)CO)C2O (configuration not stated)", "> 100 µM"),
    ("CCNCCNc1c2ccccc2nc2ccccc12", "> 100 µM"),
    ("Cc1csc(=S)n1OC(=O)NC1CCCCC1", "> 95.5 µM"),
    ("CC(=O)Nc1cc([As](=O)(O)O)ccc1O", "> 100 µM"),
    ("C#CCOCn1cnc2c(Cl)ncnc21", "> 100 µM"),
    ("COc1ccc(-c2c3c(N)nc(-c4ccncc4)nc3nc3c2c(C)nn3-c2ccccc2)cc1", "16 µM"),
]

Exam item: Give recorded TGI. CC1=C(C)C(=O)c2c(cc3ccccn23)C1=O
Marked response: 36.6 µM

Exam item: Give recorded TGI. N=c1oc2c(Cl)cc(Cl)cc2cc1C(=O)Nc1cccc2ccccc12
Marked response: > 100 µM

Exam item: Give recorded TGI. NC(=O)N=C(N(Cc1ccccc1)Cc1ccccc1)N(Cc1ccccc1)Cc1ccccc1
Marked response: > 100 µM

Exam item: Give recorded TGI. O=[N+]([O-])c1ccc(-c2csc3nc(-c4ccccc4)nn23)cc1
Marked response: > 100 µM

====

TGI: recorded values
System: MALME-3M melanoma
testName: NCI tumour cell line growth inhibition, 48 h

Examples with their reported TGI follow.
# compound, TGI
data = [
    ("CCOC(CN=C=S)OCC", "> 10 µM"),
    ("CN(C)C(=O)OC(Cn1cncn1)c1ccc(Cl)cc1Cl (stereo not drawn)", "> 100 µM"),
    ("O=C(CSc1nnc(-c2ccc(N=Cc3ccc(Cl)cc3)cc2)o1)Nc1ccc(Cl)cc1Cl", "47.5 µM"),
    ("O=C1CC(c2ccc(O)cc2)C2(O1)C(=O)OC(C(O)CO)C2O (stereo not drawn)", "> 100 µM"),
    ("O=[N+]([O-])C1C2C=CC(C2)[C@H]1c1ccco1 (stereo partly drawn)", "> 100 µM"),
]

Exam item: Give recorded TGI. CCCC(=O)OC1C(C(O)CO)OC2OC(C)(C)OC21 (stereo not drawn)
Marked response: > 100 µM

Exam item: Give recorded TGI. O=C1c2ccccc2S(=O)(=O)c2c1cccc2[N+](=O)[O-]
Marked response: 3.02 µM

====

Test system: NCI-H226 lung
testName: NCI tumour cell line growth inhibition, 48 h
observable: TGI

Examples with their reported TGI follow.
# compound, TGI
data = [
    ("COc1ccc2nc(N/N=C/C(C)=N/Nc3cc(C)c4cc(OC)ccc4n3)cc(C)c2c1", "53.3 µM"),
    ("O=C(/C=C/c1csc(-c2ccccc2)n1)NCc1ccc(C(=O)NCCc2ccccc2)cc1", "90.2 µM"),
    ("Cc1c(/C=N/NC(=O)c2cc(Br)cc(Br)c2O)c(=O)n(-c2ccccc2)n1C", "> 100 µM"),
    ("COC(=O)C(=O)C1(CCC(C)=O)c2ccccc2-c2c(C)ccc(C)c21 (stereo not drawn)", "> 100 µM"),
]

Exam item: Fill in: TGI on NCI-H226 lung, entry COc1ccc(-c2csc(N(C(=O)N3CCN(c4cc5c(cc4F)c(=O)c(C(=O)O)cn5C4CC4)CC3)c3ccccc3)n2)cc1
Marked response: 21.7 µM

Exam item: Fill in: TGI on NCI-H226 lung, entry COC(=O)[C@H](C[C@H](Cc1ccccc1)NC(=O)c1csc([C@@H](C[C@H](C(C)C)N(C)C(=O)[C@@H](NC(=O)[C@H]2CCCCN2C)C(C)C)OC(C)=O)n1)NC(=O)OCc1ccccc1
Marked response: 0.0799 µM

Exam item: Fill in: TGI on NCI-H226 lung, entry NC(=O)NNc1nc2ccccc2c(=O)n1NC(=O)C(=O)Nc1ccc(Cl)cc1Cl
Marked response: > 100 µM

Exam item: Fill in: TGI on NCI-H226 lung, entry CCOC(=O)c1c2c(n3ccccc13)C(=O)c1ccccc1C2=O
Marked response: > 100 µM

====

GI50: recorded values
System: KM12 colon
testName: NCI tumour cell line growth inhibition, 48 h

Examples with their reported GI50 follow.
# compound, GI50
rows = [
    ("COc1cc2c(c(OC)c1)C1c3ccccc3NC(=O)N1CC2 (centres undefined)", "4.95 µM"),
    ("Nc1ccccc1C#C/C=C\\C#Cc1cccs1", "5.66 µM"),
]

Exam item: Give recorded GI50. O=C1c2cccnc2C(=O)c2nc3cc(N4CCN(C5CC5)CC4)ccc3nc21
Marked response: 1.25 µM

Exam item: Give recorded GI50. NCCOCCOCCNc1nc(Cc2ccccc2)nc(NCCCN2CCCC2=O)n1
Marked response: > 100 µM

====

Tested on: CCRF-CEM leukemia
testName: NCI tumour cell line growth inhibition, 48 h
observable: TGI

# molecule, TGI
data = [
    ("CCC1NC(=O)C1NC(=O)OC (stereo not drawn)", "> 100 µM"),
    ("COc1ccc2c(c1)cn1c3ccc(O)cc3nc(N)c21", "> 50.9 µM"),
    ("COc1cc(Cn2c3ccccc3c3cc(C)c4c(c32)C=CC(C)(CCC=C(C)C)O4)cc2c1[nH]c1ccccc12 (stereo not drawn)", "> 100 µM"),
    ("O=[N+]([O-])C1C2C=CC(C2)[C@H]1c1ccco1 (stereo partly drawn)", "> 100 µM"),
    ("CC#C[C@]1(O)CC[C@H]2[C@@H]3CCC4=CC(=O)CCC4=C3[C@@H](c3ccc4c(c3)OCO4)C[C@@]21C", "619 µM"),
]

Exam item: Give recorded TGI. CCN(CC)CCC(=O)c1ccc(Oc2ccc(Cl)cc2)cc1
Marked response: 58.1 µM

Exam item: Give recorded TGI. CC1=Nc2ccccc2S/C1=C(/C)NNC(=O)C(N)=O
Marked response: > 100 µM

Exam item: Give recorded TGI. Cc1ccc(N=Nc2c(O)c(C(=O)O)cc3ccccc23)cc1C
Marked response: > 100 µM

====

System: KM12 colon
testName: NCI tumour cell line growth inhibition, 48 h; in the data active = GI50 below about 0.43 µM; inactive = the rest
Please state which outcome applies, choosing from true (active), false (inactive)

As a guide, the following entries are already answered.
# molecule, assayedSystem, className
records = [
    ("COc1ccc(-c2ccc(/C=N/n3c(COc4ccc(Cl)cc4Cl)nn(CN4CCOCC4)c3=S)o2)c([N+](=O)[O-])c1", "KM12 colon", "false"),
    ("COc1ccc(/C(C#N)=C/c2ccccc2OC)cc1", "KM12 colon", "false"),
    ("COc1ccc2sc3c(NCCCN(C)C)nc4ccccc4c3c(=O)c2c1", "KM12 colon", "false"),
    ("COc1cc(/C=C/c2cc(O)c3cc(C(C)=O)c(=O)oc3c2)cc2c1O[C@]1(C)CC[C@@H](O)C(C)(C)[C@H]1C2", "KM12 colon", "false"),
    ("COC(C(=O)[O][Ge]([CH3])([CH3])[CH3])c1ccccc1 (stereo not given)", "KM12 colon", "false"),
]

Exam item: Returns: the outcome recorded for COc1ccc(-c2csc(N(C(=O)N3CCN(c4cc5c(cc4F)c(=O)c(C(=O)O)cn5C4CC4)CC3)c3ccccc3)n2)cc1 in this assay.
Marked response: false

Exam item: Returns: the outcome recorded for CCCC(C)c1cc(Cc2cc(Cl)cc(Cl)c2O)c(O)c(Cc2cc(Cl)cc(Cl)c2O)c1 (stereo not given) in this assay.
Marked response: false

Exam item: Returns: the outcome recorded for COc1ccc2c(c1)/C(=C\c1c(C)nc3sccn13)C(=O)N2 in this assay.
Marked response: true

Exam item: Returns: the outcome recorded for CC1SC(c2ccccc2)N(CCc2cccs2)C1=O (stereo not given) in this assay.
Marked response: false

Exam item: Returns: the outcome recorded for COc1ccc(-c2c3c(N)nc(-c4ccncc4)nc3nc3c2c(C)nn3-c2ccccc2)cc1 in this assay.
Marked response: false

====

Tested on: HL-60(TB) leukemia
testName: NCI tumour cell line growth inhibition, 48 h
TGI: recorded values

# compound, assayedSystem, observedValue
rows = [
    ("NCCOCCOCCNc1nc(Cc2ccccc2)nc(NCCCN2CCCC2=O)n1", "HL-60(TB) leukemia", "> 100 µM"),
    ("Cc1cccc2nc3c(C(=O)NCCN(C)C)cccc3cc12", "HL-60(TB) leukemia", "3.37 µM"),
    ("CC1CNc2ccccc2N=C1NN (configuration not stated)", "HL-60(TB) leukemia", "> 24.8 µM"),
    ("CC1=Nc2ccccc2S/C1=C(/C)NNC(=O)C(N)=O", "HL-60(TB) leukemia", "> 100 µM"),
    ("NCCn1c(=O)[nH]c(=O)[nH]c1=S", "HL-60(TB) leukemia", "> 100 µM"),
]

Exam item: Give recorded TGI. CC(=O)Nc1cc([As](=O)(O)O)ccc1O
Marked response: > 100 µM

Exam item: Give recorded TGI. COc1ccc2nc(-c3ccc(-c4noc(-c5cc(OC)c(OC)c(OC)c5)n4)cc3)[nH]c2c1
Marked response: 81.7 µM

Exam item: Give recorded TGI. CN1CC[C@@]2(c3cccc(O)c3)CC(=O)/C(=C/c3ccccc3)[C@H]1C2
Marked response: 7.73 µM

Exam item: Give recorded TGI. CS(=O)(=O)N1CC(CCl)c2ccc([N+](=O)[O-])cc21 (configuration not stated)
Marked response: > 100 µM

Exam item: Give recorded TGI. COc1ccc(-c2n/c(=C\c3c(O)[nH]c4ccc(OC)cc34)cc3c2=Nc2ccccc2-3)cc1
Marked response: 32.5 µM

Exam item: Give recorded TGI. O=[N+]([O-])C(C(Cl)=C(Cl)Cl)=C(N(Cc1ccccc1)Cc1ccccc1)N(Cc1ccccc1)Cc1ccccc1
Marked response: 78 µM

Exam item: Give recorded TGI. COc1ccc(/C(=C2/O[C@@H]([C@H]3COC(C)(C)O3)[C@H]3OC(C)(C)O[C@@H]23)c2cc(OC)c(OC)c(OC)c2)cc1O
Marked response: 56.8 µM

Exam item: Give recorded TGI. O=c1cc(-c2ccccc2)[nH]c2ccccc12
Marked response: > 100 µM

Exam item: Give recorded TGI. CCOC(CN=C=S)OCC
Marked response: > 10 µM
